- Test system: U-2932
- Assay comment: growth inhibition by drug alone (1 - RLU/untreated control) (fraction); higher = stronger inhibition
- Measurement conditions: 1000 nM; time (day): 5; 177Lu-lilotomab satetraxetan 0 ug/ml
Structures can show the parent of a compound that is named as a salt.
Property measured: growth inhibition by drug alone

1) Nc1nccc(Oc2ccc(NC(=O)c3c[nH]cc(-c4ccc(F)cc4)c3=O)cc2F)c1Cl :: -0.0987
2) C[C@]12CC[C@@H]3c4ccc(O)cc4C[C@@H](CCCCCCCCC[S+]([O-])CCCC(F)(F)C(F)(F)F)[C@H]3[C@@H]1CC[C@@H]2O (some centres not stated) :: -0.0718
3) COc1cc(Nc2ncc(F)c(Nc3ccc4c(n3)NC(=O)C(C)(C)O4)n2)cc(OC)c1OC [R406(free base)] :: -0.0439
4) Nc1nc(F)nc2c1ncn2[C@@H]1O[C@H](CO)[C@@H](O)[C@@H]1O [Fludarabine (Fludara)] :: -0.0649
5) NC(=O)c1ccc(I)c([N+](=O)[O-])c1 [Iniparib (BSI-201)] :: -0.0716
6) CC[C@H](CO)Nc1nc(NCc2ccccc2)c2ncn(C(C)C)c2n1 [Roscovitine (Seliciclib, CYC202)] :: -0.074
7) C[C@]12CC[C@@H]3c4ccc(O)cc4CC[C@H]3[C@@H]1CCC2=O [Estrone] :: 0.0242
8) CNC(=O)c1cc(Oc2ccc(NC(=O)Nc3ccc(Cl)c(C(F)(F)F)c3)c(F)c2)ccn1 [Regorafenib (BAY 73-4506)] :: 0.302
9) O=C(Nc1cccc(Cl)c1)Nc1ncc(CCNc2ncnc3ccsc23)s1 :: 0.218
10) CS(=O)(=O)N1CCN(Cc2cc3nc(-c4cccc5[nH]ncc45)nc(N4CCOCC4)c3s2)CC1 :: 0.802
11) COc1cc2nccc(Oc3ccc(NC(=O)NC4CC4)c(Cl)c3)c2cc1C(N)=O [E7080 (Lenvatinib)] :: -0.0471
12) CNC(=O)c1cc(COc2nnc(Nc3ccc(Cl)cc3)c3ccoc23)ccn1 [Telatinib (BAY 57-9352)] :: -0.0739
13) CC(C)C[C@H](NC(=O)[C@@H](O)[C@H](N)Cc1ccccc1)C(=O)O [Ubenimex (Bestatin)] :: -0.0577
14) CCN(CC)CCNC(=O)c1c(C)[nH]c(/C=C2\C(=O)Nc3ccc(F)cc32)c1C [Sunitinib Malate (Sutent)] :: -0.0741
15) CN(C)CCOc1ccc(/C(=C(/CCCl)c2ccccc2)c2ccccc2)cc1 [Toremifene Citrate (Fareston, Acapodene)] :: -0.00882
16) Cc1[nH]c(/C=C2\C(=O)Nc3ccc(S(=O)(=O)Cc4c(Cl)cccc4Cl)cc32)c(C)c1C(=O)N1CCC[C@@H]1CN1CCCC1 :: -0.118
17) COc1ccc(COc2cc3oc(=O)c4cc(C(C)O)ccc4c3cc2OC)cc1 (configuration not stated) [Palomid 529] :: -0.0394
18) COc1cc(Nc2c(C#N)cnc3cc(OCCCN4CCN(C)CC4)c(OC)cc23)c(Cl)cc1Cl [Bosutinib (SKI-606)] :: 0.19
19) C=CC[C@@H]1/C=C(\C)C[C@H](C)C[C@H](OC)[C@H]2O[C@@](O)(C(=O)C(=O)N3CCCC[C@H]3C(=O)O[C@H](/C(C)=C/[C@@H]3CC[C@@H](O)[C@H](OC)C3)[C@H](C)[C@@H](O)CC1=O)[C@H](C)C[C@@H]2OC [FK-506 (Tacrolimus)] :: 0.449
20) Nc1nc(Nc2ccc(S(N)(=O)=O)cc2)nn1C(=O)c1c(F)cccc1F :: 0.398
21) Cc1ccc(NC(=O)c2cccc(C(C)(C)C#N)c2)cc1Nc1ccc2ncn(C)c(=O)c2c1 :: 0.087
22) CN(C)C[C@@H]1CCn2cc(c3ccccc32)C2=C(C(=O)NC2=O)c2cn(c3ccccc23)CCO1 :: 0.226
23) CCCCCOC(=O)Nc1nc(=O)n([C@@H]2O[C@H](C)[C@@H](O)[C@H]2O)cc1F [Capecitabine (Xeloda)] :: -0.0714
24) COc1ccc(C2CC(c3ccccc3)=NN2c2ccc(S(N)(=O)=O)cc2)cc1 (configuration not stated) :: -0.0999
25) CCC(CC)CC1(C(=O)Nc2ccccc2SC(=O)C(C)C)CCCCC1 :: -0.0741
26) NC(=O)Nc1sc(-c2ccc(F)cc2)cc1C(N)=O :: 0.176
27) C=CC(=O)N1CCC[C@@H](n2nc(-c3ccc(Oc4ccccc4)cc3)c3c(N)ncnc32)C1 :: 0.729
28) N#CC[C@H](C1CCCC1)n1cc(-c2ncnc3[nH]ccc23)cn1 :: -0.111
29) C=CCn1c(=O)c2cnc(Nc3ccc(N4CCN(C)CC4)cc3)nc2n1-c1cccc(C(C)(C)O)n1 :: 0.914
30) COc1cc2/c(=N/c3ccc(Br)cc3F)nc[nH]c2cc1OCC1CCN(C)CC1 [Vandetanib (Zactima)] :: -0.167
31) CNC(=O)c1ccccc1Sc1ccc2c(/C=C/c3ccccn3)n[nH]c2c1 [Axitinib] :: -0.0091
32) C[N+](C)([O-])CCNc1ccc(NCC[N+](C)(C)[O-])c2c1C(=O)c1c(O)ccc(O)c1C2=O [Banoxantrone dihydrochloride] :: -0.082

Reference source: the supplement of paper PMC6897291
